Reference source for all entries: ChEMBL document CHEMBL3044853

Collected pIC50 values appear next to each entry.
# Tested on: Vero
# test protocol: Cytotoxicity against Chlorocebus aethiops (African green monkey) Vero cells after 5 days celltiter 96 aqueous assay
# Assay type: cell-based
# measurement setup: Chlorocebus sabaeus, 120 h
pIC50: −log10 of the molar value.
readout label: pIC50

{"columns": ["compound", "relation operator", "number"],
 "data": [
  ["O=C(/C=C/c1ccc(N2CCCCC2)cc1)c1cc(Cl)sc1Cl", "=", 4.60],
  ["O=C(/C=C/c1ccc(N2CCCCC2)cc1)c1ccc(I)s1", "=", 4.25],
  ["Cc1cc(C2=NNC(c3ccc(N4CCCCC4)cc3)C2)c(C)s1 (stereo unspecified)", "=", 4.08],
  ["O=C(/C=C/c1ccc(N2CCCCC2)cc1)c1ccc(Cl)s1", "=", 4.49],
  ["Clc1ccc(C2=NNC(c3ccc(N4CCCCC4)cc3)C2)s1 (stereo unspecified)", "<", 4.00],
  ["c1csc(C2=NNC(c3ccc(N4CCCCC4)cc3)C2)c1 (stereo unspecified)", "=", 5.49],
  ["O=C(/C=C/c1ccc(N2CCCCC2)cc1)c1ccc(Br)s1", "=", 4.16],
  ["Cc1cc(C(=O)/C=C/c2ccc(N3CCCCC3)cc2)c(C)s1", "=", 4.37],
  ["Cc1csc(C2=NNC(c3ccc(N4CCCCC4)cc3)C2)c1 (stereo unspecified)", "=", 4.50],
  ["c1cc(C2=NNC(c3ccc(N4CCCCC4)cc3)C2)cs1 (stereo unspecified)", "=", 4.53],
  ["Cc1ccc(C2=NNC(c3ccc(N4CCCCC4)cc3)C2)s1 (stereo unspecified)", "=", 4.28]
]}
